Test system: Kasumi-1 (acute myeloid leukemia M2 type) cells
assay_procedure: MTT cell growth inhibition, leukemia cells
Assay type: cell-based, human
test_conditions: Homo sapiens; Kasumi-1, 72 h, MTT; read-out: IC90
reported_property: IC90 (µg/mL)

1 = C=CCOc1c(OC)cc2c3c1Oc1cc4c(cc1OC)CCN(C)[C@H]4Cc1ccc(cc1)Oc1cc(ccc1OC)C[C@@H]3N(C)CC2 [BS-FC-213]
2 = COc1ccc2cc1Oc1ccc(cc1)C[C@H]1c3cc(c(OC)cc3CCN1C)Oc1c(OCC(O)CNCC3CC3)c(OC)cc3c1[C@H](C2)N(C)CC3 (stereo partly drawn) [BS-FC-405]
Lookup: Which of the two gives a bigger number for IC90: 1 or 2 ? Label of pick, please.
Found: 1
(1: 3.66 µg/mL, 2: 1.75 µg/mL)

a = C=C(C)COc1c(OC)cc2c3c1Oc1cc4c(cc1OC)CCN(C)[C@H]4Cc1ccc(cc1)Oc1cc(ccc1OC)C[C@@H]3N(C)CC2 [BS-FC-221]
b = COc1cc(OC)cc(C(=O)Oc2c(OC)cc3c4c2Oc2cc5c(cc2OC)CCN(C)[C@H]5Cc2ccc(cc2)Oc2cc(ccc2OC)C[C@@H]4N(C)CC3)c1 [BS-FC-311]
Lookup: Which of the two gives a bigger number for IC90: a or b ? Label of pick, please.
Found: a

I = COc1ccc2cc1Oc1ccc(cc1)C[C@H]1c3cc(c(OC)cc3CCN1C)Oc1c(OS(=O)(=O)c3ccc(C)cc3)c(OC)cc3c1[C@H](C2)N(C)CC3 [BS-FC-102]
II = COc1ccc2cc1Oc1ccc(cc1)C[C@H]1c3cc(c(OC)cc3CCN1C)Oc1c(OCC(O)CN3CCCCC3)c(OC)cc3c1[C@H](C2)N(C)CC3 (stereo partly drawn) [BS-FC-403]
Lookup: Which of the two gives a bigger number for IC90: I or II ? Label of pick, please.
Found: I

# credit: patent US9328122B2
